value.kind: melting point

May I ask what melting point has been recorded for "CS(=O)(=O)c1ccc(-c2nn3c(c2-c2ccc(F)cc2)OCCCC3)cc1" ?
167 to 168 °C

May I ask what melting point has been recorded for "Cc1ccc(C(=O)c2ccc3[nH]c(=O)nc(-c4cccc(Cl)c4)c3c2)cc1" ?
181 °C

May I ask what melting point has been recorded for "CCOC(=O)c1cccc(-c2nc(-c3cc(C)sc3C)cs2)c1" ?
115 to 116 °C

May I ask what melting point has been recorded for CC1(C)CCC(C)(C)c2cc(C(N)C(=O)NCS(=O)(=O)c3ccccc3)ccc21 (stereo not drawn) ?
175 to 176 °C

May I ask what melting point has been recorded for "N#CSCC(Cl)=C(Cl)CSC#N" ?
166 to 169 °C

May I ask what melting point has been recorded for Clc1ccc(C2NCCc3c2[nH]c2ccccc32)cc1 (stereo not drawn) ?
161 °C

May I ask what melting point has been recorded for CCOC(=O)N1C(=O)N(C(=O)OCC)C2(C1=O)C(=O)N(Cc1ccc(Cl)c(Cl)c1)c1ccccc12 (stereo not drawn) ?
180 to 182 °C

---

value.kind: melting point

Use these answered entries as a reference point.
compound	melting point
CCC(=O)N1C(=O)C(=O)c2cc(F)ccc21	150 to 152 °C
O=C(NCC(F)(F)F)C1(CCCc2ccccc2)c2ccccc2-c2ccccc21	86 to 88 °C
CC(C)(C)OC(=O)N1CCO[C@@H](c2ccc(C#N)cc2)C1	104 °C
c1ccc(Nc2nc(OCC3CCCCC3)c3[nH]cnc3n2)cc1	196 to 199 °C

May I ask what melting point has been recorded for "CCCCC[C@H]1CC[C@H](c2cnc(-c3ccc(C#N)cc3)nc2)CC1" ?
100 °C

May I ask what melting point has been recorded for "CNC(=O)c1cccc(F)c1Nc1nc(Nc2ccc3c(c2)C(C)(C)CCC(=O)N3)ncc1Cl" ?
153 °C

May I ask what melting point has been recorded for "COc1nc(OC)c(C=CC(C)=O)c(OC)n1" ?
98 to 99 °C

May I ask what melting point has been recorded for "c1cnc(-c2noc(C3CC3)n2)cn1" ?
95 to 98 °C

May I ask what melting point has been recorded for "Cn1cccc1-c1oncc1C(=O)Nc1ccccc1" ?
100 to 103 °C

May I ask what melting point has been recorded for "CCOC(=O)c1nccc(C#N)c1N" ?
114 to 116 °C

May I ask what melting point has been recorded for CCCC1c2cc(C(C)(C)C)cc(C(C)(C)C)c2OP(=O)(c2ccccc2)Oc2c1cc(C(C)(C)C)cc2C(C)(C)C (stereo unspecified) ?
232 to 234 °C

May I ask what melting point has been recorded for "CCc1nn(C2CN(C(C)C)C2)c(C(N)=O)c1[N+](=O)[O-]" ?
153 to 156 °C

May I ask what melting point has been recorded for "CN1CCC(CCCOc2cc3ncnc(Nc4cccc(Br)c4)c3cc2N)CC1" ?
191 to 198 °C

May I ask what melting point has been recorded for CCOC(=O)C1=C(C)NC(C=O)=C(C(=O)OCC)C1c1ccccc1OC (stereo unspecified) ?
111 to 112 °C

May I ask what melting point has been recorded for O=C(Nc1ccc(C(F)(F)F)cc1)N1N=C2c3ccc(C(F)(F)F)cc3OC3CCCC1C23 (stereo unspecified) ?
194 to 195 °C

May I ask what melting point has been recorded for "Clc1c[nH]nc1-c1cc(Br)cc(Br)c1" ?
188 °C

May I ask what melting point has been recorded for N#CC(OC1CCCCO1)c1ccc(Cl)c(Cl)c1 (stereo unspecified) ?
61 °C

May I ask what melting point has been recorded for CC1CCCN(c2cc3nc(C(C)(C)C)sc3cc2N=C=S)C1 (stereo unspecified) ?
47 to 52 °C

May I ask what melting point has been recorded for CC(C)CCCC(C)C1CCC2C3CC=C4CC(Oc5ccc(N)cc5N)CCC4(C)C3CCC12C (stereo unspecified) ?
159 to 163 °C

May I ask what melting point has been recorded for "CC(C)C(=O)Oc1ccc2nc(NC(=O)Nc3ccccc3)sc2c1" ?
212 to 215 °C

May I ask what melting point has been recorded for "COCc1cc(OCc2ccccc2)c2nc(C)c(C)n2c1" ?
107 °C

---

List of melting point values.

compound	result
CC(=Cc1ccc(C(C)(C)C)cc1)C(=O)NC(C)c1ccc(NS(C)(=O)=O)c(F)c1 (stereo not given)	92 to 94 °C
CCCc1ncc(/C=C2\C(=O)N(CC(=O)OC)c3cccc(C)c32)n1Cc1ccc(C(=O)OC)cc1	228 to 230 °C
O=C(CCCCCCCCCCCNC(=O)OCc1ccccc1)OC(=O)CCCCCCCCCCCNC(=O)OCc1ccccc1	72 to 73 °C
C=CCn1c(-c2cccc(Cl)c2[N+](=O)[O-])nc2ccccc21	148 to 150 °C
O=C(O)C(Sc1nc2c(s1)CCCC2)c1ccccc1 (stereo not given)	118 to 120 °C
O=C(NCc1csc(C(F)(F)F)n1)c1ccnc(N2CCN(Cc3ccc(F)cc3)C2=O)c1	66 to 68 °C
COc1cccc2c1C(C)C(=O)N2 (stereo not given)	128 to 130 °C
O=[N+]([O-])c1ccc(-c2cc(C(F)(F)C(F)(F)C(F)(F)F)nc(-c3ccc(C(F)(F)F)cc3)n2)cc1	191 °C
O=C1c2ccccc2C(=O)N1CC(=O)N1c2ccccc2N(Cc2cccc3ccccc23)C(=O)[C@H]2CCC[C@H]21 (relative stereo)	266 to 270 °C
CCOC1OC(=O)CC1NC(=O)C1CCCN1C(=O)C(NC(=O)c1ccc(N)c(Cl)c1)C(C)(C)C (stereo not given)	96 to 99 °C

May I ask what melting point has been recorded for CCOC(=O)C(C=C(C)CP(=O)(OCCCl)OCCCl)NC=O (stereo not given) ?
47 to 49 °C

May I ask what melting point has been recorded for "COc1cc(OC)nc(C(=O)NS(=O)(=O)NC(C)C)n1" ?
167 to 169 °C

May I ask what melting point has been recorded for "COc1c(C(=O)O)ccc2ccccc12" ?
118 to 122 °C

May I ask what melting point has been recorded for "Cc1ccc(S(=O)(=O)n2ccc3cc(F)cnc32)cc1" ?
160 °C

May I ask what melting point has been recorded for CN(C)c1ccc(C=CC(=O)N2CCc3c([nH]c4ccccc34)C2c2ccc3c(c2)CCO3)cn1 (stereo not given) ?
171 °C

May I ask what melting point has been recorded for COC(=O)C(C#N)c1c[nH]c2ccc(OC)cc12 (stereo not given) ?
98 to 100 °C

May I ask what melting point has been recorded for "CCCCCCCCP(=O)(O)CCCCCCCC" ?
84 to 86 °C

May I ask what melting point has been recorded for CCC(C)(OCc1nn(Cc2ccccc2)c2ccccc12)C(=O)O (stereo not given) ?
66 to 67 °C

May I ask what melting point has been recorded for "CC(=O)N1CCC(OC(=O)c2ccccc2)(c2nccc3ccccc23)CC1" ?
186 to 189 °C

May I ask what melting point has been recorded for "N[C@H](Cc1ccc(OC(=O)OCc2ccccc2)cc1)C(=O)O" ?
208 to 210 °C

---

List of melting point values.

compound	melting point
CCOc1ccc(C2C(C(=O)c3ccc(C(C)C)cc3)=C(O)C(=O)N2c2ccc(C)nn2)cc1 (centres undefined)	279 °C
Cc1cc(C(=O)CCc2cc(-c3ccc(C(F)(F)F)cc3)nn2Cc2ccccc2)ccc1OCC(=O)O	175 to 180 °C
CC(=O)Nc1ccc2cnn(-c3ccnc(N[C@H]4CC[C@H](O)CC4)n3)c2c1	288 to 290 °C
OC(Cc1ccccc1Cl)(Cn1ccnc1S)C1(Cl)CC1 (centres undefined)	124 to 126 °C
CC(C)c1ncc(CN2C(=O)C3(COc4cc5c(cc43)OCO5)c3cccc(C(F)(F)F)c32)s1 (centres undefined)	101 to 103 °C
CCCOc1cccc(CO)c1-c1ccc(OC)cc1O	102 to 103 °C
FC(F)(F)c1cccc(N2CCN(c3ccc(Cl)nn3)CC2)c1	149 °C
NC1=CC(=O)CC(c2cccc(Cl)c2Cl)C1 (centres undefined)	209 to 210 °C

May I ask what melting point has been recorded for Cc1oc(C(C)(C)C)nc1CCOc1ccc(CC(OC(C)C)C(=O)O)c2sccc12 (centres undefined) ?
159 to 160 °C

May I ask what melting point has been recorded for CC(C)(C)OC(=O)N1CCC(NC(=O)c2ccc(-n3cccn3)cc2)C1 (centres undefined) ?
263 to 264 °C

May I ask what melting point has been recorded for CC1(CCSc2nc3ccccc3o2)Cn2cc([N+](=O)[O-])nc2O1 (centres undefined) ?
174 to 175 °C

May I ask what melting point has been recorded for "Cc1ccc(S(=O)(=O)Oc2ccc3c4c(nn3CCNCCO)-c3cnccc3C(=O)c24)cc1" ?
131 to 133 °C

May I ask what melting point has been recorded for "COC(=O)C(C)(C)c1cn2nc(Cl)ccc2n1" ?
92 to 93 °C

May I ask what melting point has been recorded for "CCC(=O)N1CCN(c2ccc(NC(=O)c3cc(=O)c4cc(F)cc(N5CCN(C)CC5)c4o3)cc2)CC1" ?
244 to 245 °C

May I ask what melting point has been recorded for "COc1ccc(CNc2nc(Cl)ncc2C(=O)c2ccccn2)cc1Cl" ?
117 to 119 °C
